Source: ChEMBL document CHEMBL4732237

# Test system: NCI-H460
# protocol.summary: Growth inhibition of human NCI-H460 cells at 10 uM incubated for 48 hrs by sulforhodamine B assay relative to control
# Format: functional
# condition: read-out: GI

smiles.code: COc1cc2nc(-c3ccc(Cl)cc3)cc(OCCN3CCOCC3)c2cc1OC
assay.system: NCI-H460
inhibition of growth at 10 µM, %: 3
//
smiles.code: COc1cc2nc(-c3ccc(C(F)(F)F)cc3)cc(OCCN3CCC(O)CC3)c2cc1OC
assay.system: NCI-H460
inhibition of growth at 10 µM, %: 13
//
smiles.code: COc1cc2nc(-c3ccc(C(F)(F)F)cc3)cc(OCCN3CCOCC3)c2cc1OC
assay.system: NCI-H460
inhibition of growth at 10 µM, %: 13
//
smiles.code: COc1cc2nc(-c3cccs3)cc(OCCCN3CCC(O)CC3)c2cc1OC
assay.system: NCI-H460
inhibition of growth at 10 µM, %: 20
//
smiles.code: COc1cc2nc(-c3ccc(Cl)cc3)cc(OCCCN3CCCC3)c2cc1OC
assay.system: NCI-H460
inhibition of growth at 10 µM, %: 62
//
smiles.code: COc1cc2nc(-c3ccc(C(F)(F)F)cc3)cc(OCCN3CCCC3)c2cc1OC
assay.system: NCI-H460
inhibition of growth at 10 µM, %: 13
//
smiles.code: COc1cc2nc(-c3ccc(Cl)cc3)cc(OCCN3CCC(O)CC3)c2cc1OC
assay.system: NCI-H460
inhibition of growth at 10 µM, %: 3
//
smiles.code: COc1cc2nc(-c3ccc(Cl)cc3)cc(OCCN3CCCCC3)c2cc1OC
assay.system: NCI-H460
inhibition of growth at 10 µM, %: 3
//
smiles.code: COc1cc2nc(-c3ccc(C(F)(F)F)cc3)cc(OCCN3CCCCC3)c2cc1OC
assay.system: NCI-H460
inhibition of growth at 10 µM, %: 13
//
smiles.code: COc1cc2nc(-c3ccc(Cl)cc3)cc(OCCCN3CCOCC3)c2cc1OC
assay.system: NCI-H460
inhibition of growth at 10 µM, %: 62
//
smiles.code: COc1cc2nc(-c3ccc(Cl)cc3)cc(OCCCN3CCC(O)CC3)c2cc1OC
assay.system: NCI-H460
inhibition of growth at 10 µM, %: 62
//
smiles.code: COc1cc2nc(-c3ccco3)cc(OCCCN3CCC(O)CC3)c2cc1OC
assay.system: NCI-H460
inhibition of growth at 10 µM, %: 46
//
smiles.code: COc1cc2nc(-c3ccc(Cl)cc3)cc(OCCCN3CCCCC3)c2cc1OC
assay.system: NCI-H460
inhibition of growth at 10 µM, %: 62
//
smiles.code: COc1cc2nc(-c3ccc(Cl)cc3)cc(OCCN3CCCC3)c2cc1OC
assay.system: NCI-H460
inhibition of growth at 10 µM, %: 3
//
smiles.code: COc1cc2nc(-c3ccsc3)cc(OCCCN3CCC(O)CC3)c2cc1OC
assay.system: NCI-H460
inhibition of growth at 10 µM, %: 32
